# Experiment Summary: Tanguay_ZF_120hpf_PIG_legacy: (Legacy) Oregon State University Tanguay Lab 120 Hour Post-fertilization zebrafish Assay for Pigmentation Malformation (AID 2283650);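 note: dechorionated Tropical 5D zebrafish embryos exposed singly from 6 to 120 hpf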
Inconclusive results are not listed. Calls of active or inactive are those of the source. Rule for the calls: active = hit-call score of the fitted dose curve at least 0.9, where 1 is the maximum; inconclusive = response in the unintended direction; inactive = score below 0.9.
Lab note: assign the record to one of True for active, False for inactive

Worked examples, 3 molecules total:
Cc1ccc(O)cc1C | False
O=C(O)C1C(C(=O)O)C2(Cl)C(Cl)=C(Cl)C1(Cl)C2(Cl)Cl (configuration not stated) | False
c1cc2c3c(cccc3c1)CC2 | False

Hi team, can someone confirm the assay call for c1nc[nH]n1 ?
False

// same read-out, input: Nc1ccc2ccccc2c1
True

// same read-out, input: Cc1ccc([N+](=O)[O-])cc1C
False

// same read-out, input: CCCCN(CCCC)SN(C)C(=O)Oc1cccc2c1OC(C)(C)C2
False

====

# Target System: Estrogen receptor (Homo sapiens)
# Experiment Summary: OT_ERa_GFPERaERE_0120: Odyssey Thera (OT) 2-hour HeLa Transcription Induction Assay for Estrogen Receptor (AID 2283382)
Active and inactive are the calls of the source. How the source made its calls: active means hit-call score of the fitted dose curve at least 0.9, where 1 is the maximum; inconclusive means response in the unintended direction; inactive means score below 0.9.
Lab note: assign the record to one of true (active), false (inactive)

Worked examples, 3 compounds total:
O=S(=O)(c1ccc(O)cc1)c1ccc(O)cc1 | true
c1ccc2c(c1)sc1ccccc12 | false
O=NN1CCCC1 | false

Hi team, can someone confirm the assay call for CCCCc1ccccc1 ?
false

// same read-out, input: [N-]=[N+]=[N-]
false

// same read-out, input: O=[N+]([O-])c1ccccc1
false

// same read-out, input: CCOC(=O)c1ccccc1N
false

// same read-out, input: O=S1(=O)OCC2C(CO1)C1(Cl)C(Cl)=C(Cl)C2(Cl)C1(Cl)Cl (stereo unspecified)
false

====

# Read-out: Plasminogen activator inhibitor-1 (PAI1), SERPINE1 (gene 5054)
# Experiment Summary: BSK_BE3C_PAI1: BioMAP Diversity Plus: BE3C Assay for Plasminogen activator inhibitor-1 (PAI1) Biomarker Activity (AID 2283037)
# Setup Conditions: primary human bronchial epithelial cells; actives raise or lower the signal
Calls of active or inactive are those of the source. Rule for the calls: active = hit-call score of the fitted dose curve at least 0.9, where 1 is the maximum; inactive = score below 0.9.
Lab note: assign the record to one of active, inactive

Worked examples, 5 compounds total:
C=CC(=O)OCC(CC)(COC(=O)C=C)COC(=O)C=C | active
CCN(CC)c1ccccc1 | inactive
CCC(C)(C)c1ccc(O)cc1 | inactive
ClC(Cl)=C(c1ccc(Cl)cc1)c1ccccc1Cl | active
Cc1ccc(O)cc1C | inactive

Hi team, can someone confirm the assay call for CCOc1ccc(C(C)(C)COCc2cccc(Oc3ccccc3)c2)cc1 ?
inactive

// same read-out, input: Cc1ccc([N+](=O)[O-])cc1C
inactive

// same read-out, input: ClC(Cl)(Cl)c1ccccc1
inactive

====

# Experiment Summary: ATG_PPRE_CIS: Attagene CIS-FACTORIAL HepG2 Assay for human Peroxisome Proliferator-activated Response Element (PPRE) (AID 2282958)
# Setup Conditions: HepG2 PPRE cis-element reporter, Attagene transcription factor profiling; actives raise or lower the signal
Active and inactive are the calls of the source. The calls were made as follows: active = hit-call score of the fitted dose curve at least 0.9, where 1 is the maximum; inactive = score below 0.9.
Lab note: assign the record to one of active, inactive

CC(C)CBr | inactive
C=CC(=O)OCC(CC)(COC(=O)C=C)COC(=O)C=C | inactive
O=[N+]([O-])c1ccc(Cl)c(Cl)c1 | inactive
N#Cc1cc([N+](=O)[O-])ccc1N | inactive
C=CC(=O)OCC(F)(F)C(F)F | inactive
CC1=C(C(=O)Nc2ccccc2)S(=O)(=O)CCO1 | inactive
OCC(F)(F)OC(F)(F)C(F)(F)OC(F)(F)C(F)(F)OC(F)(F)F | inactive
CC(C)(C)N(NC(=O)c1ccc(Cl)cc1)C(=O)c1ccccc1 | inactive

Hi team, can someone confirm the assay call for O=C(O)C(F)(F)C(F)(F)C(=O)O ?
inactive

// same read-out, input: CCC1(c2ccccc2)C(=O)N=C(O)NC1=O (stereo not given)
inactive

// same read-out, input: CC(=O)CCc1ccc2c(c1)OCO2
inactive

// same read-out, input: CCOP(=O)(O)C(N)=O
inactive

// same read-out, input: CCCCOCCOP(=O)(OCCOCCCC)OCCOCCCC
inactive
